Target: T1, human Chemokine like receptor 1 (human, UniProt Q99788 1-373)
T1 sequence (looked up): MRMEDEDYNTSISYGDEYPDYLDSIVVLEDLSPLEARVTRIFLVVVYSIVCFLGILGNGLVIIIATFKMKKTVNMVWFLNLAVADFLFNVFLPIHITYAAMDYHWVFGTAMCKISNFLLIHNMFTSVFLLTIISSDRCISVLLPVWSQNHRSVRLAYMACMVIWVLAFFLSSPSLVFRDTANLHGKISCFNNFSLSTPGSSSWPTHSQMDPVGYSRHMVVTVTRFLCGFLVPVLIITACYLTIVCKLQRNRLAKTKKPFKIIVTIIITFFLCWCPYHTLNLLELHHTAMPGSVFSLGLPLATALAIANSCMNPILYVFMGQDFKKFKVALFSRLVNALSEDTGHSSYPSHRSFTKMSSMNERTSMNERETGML
Assay: cell-based or functional assay
Square brackets hold non-standard residues; d marks the D form. Ends that are not written are not given here. 1Nal = N[C@@H](Cc1cccc2ccccc12)C(=O)O; dNMeY = CN[C@H](Cc1ccc(O)cc1)C(=O)O; Tic = O=C(O)[C@@H]1Cc2ccccc2CN1; NMeL = CN[C@@H](CC(C)C)C(=O)O
quantity: EC50 (µM), activation of Tango CMKLR1-bla U2OS cells

binder	recorded.measurement
[dNMeY]F[NMeL]P[dS]Q[1Nal][dA][Tic]S-OH (N-terminus assumed; SMILES CN[C@H](Cc1ccc(O)cc1)C(=O)N[C@@H](Cc1ccccc1)C(=O)N(C)[C@@H](CC(C)C)C(=O)N1CCC[C@H]1C(=O)N[C@H](CO)C(=O)N[C@@H](CCC(N)=O)C(=O)N[C@@H](Cc1cccc2ccccc12)C(=O)N[C@H](C)C(=O)N1Cc2ccccc2C[C@H]1C(=O)N[C@@H](CO)C(=O)O) [YW-168]	0.0012
[dY]F[NMeL]P[dS]QF[dA]XS-NH2 (not fully specified (residue 9); printed as (D-Tyr)-Phe-(NMe-Leu)-Pro-(D-Ser)-Gln-Phe-(D-Ala)-Tic-Ser-NH2) [YW-190]	0.0027
